# experimental.target: T1, full length human tau protein 2N4R (hT40) (human, UniProt P10636 1-758)
# T1 construct: recombinant protein; also called T441
# T1 sequence (P10636 other isoform, or with tags, fused parts or gaps limits assumed): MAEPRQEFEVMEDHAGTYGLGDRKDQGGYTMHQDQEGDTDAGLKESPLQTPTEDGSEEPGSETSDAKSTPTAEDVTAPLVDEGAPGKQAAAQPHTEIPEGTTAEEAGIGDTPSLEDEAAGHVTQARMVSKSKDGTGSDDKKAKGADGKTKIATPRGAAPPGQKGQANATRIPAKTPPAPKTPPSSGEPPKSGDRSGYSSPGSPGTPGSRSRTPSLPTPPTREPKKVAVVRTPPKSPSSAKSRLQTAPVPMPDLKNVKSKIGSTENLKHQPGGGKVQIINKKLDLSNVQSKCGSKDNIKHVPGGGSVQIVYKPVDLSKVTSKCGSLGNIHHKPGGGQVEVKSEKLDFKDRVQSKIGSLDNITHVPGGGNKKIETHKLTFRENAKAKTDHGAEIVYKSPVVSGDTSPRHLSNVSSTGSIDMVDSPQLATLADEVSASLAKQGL
# protocol: sandwich ELISA, S1D12 mAb capture, chemiluminescence detection
# Experimental: Full length tau (hT40), at 1 μg/ml starting concentration was added to designated wells and double diluted across rest of the plates and left to incubate at R/T for 1 h. […] For colourimetric detection HRP conjugated anti-HuCk secondary antibody was used and the resulting immunoreaction was developed and absorbance at 450 nm measured as described previously. Cut-off point for a positive binding event was an absorbance value of 0.3 following background subtraction. […]
LoD values by entry

[
  {
    "binder": "412E10 scAb (scFv, scAb (scFv-HuCk-His)) scFv: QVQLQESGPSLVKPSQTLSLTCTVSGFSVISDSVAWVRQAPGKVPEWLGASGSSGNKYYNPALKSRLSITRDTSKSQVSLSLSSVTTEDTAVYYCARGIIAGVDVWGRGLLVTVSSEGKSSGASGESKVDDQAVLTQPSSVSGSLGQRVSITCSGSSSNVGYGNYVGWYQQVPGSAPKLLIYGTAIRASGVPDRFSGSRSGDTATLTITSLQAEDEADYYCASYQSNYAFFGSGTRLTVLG",
    "LoD / ng/mL": 0.37
  },
  {
    "binder": "CB7 scAb (scFv, scAb (scFv-HuCk-His)) scFv: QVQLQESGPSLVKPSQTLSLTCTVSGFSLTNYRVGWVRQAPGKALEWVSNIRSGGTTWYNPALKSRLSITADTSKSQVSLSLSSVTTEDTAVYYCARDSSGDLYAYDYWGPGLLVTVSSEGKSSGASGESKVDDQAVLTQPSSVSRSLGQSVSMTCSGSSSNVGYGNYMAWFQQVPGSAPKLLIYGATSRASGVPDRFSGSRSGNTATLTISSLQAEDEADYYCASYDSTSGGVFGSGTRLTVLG",
    "LoD / ng/mL": 3.33
  },
  {
    "binder": "CC7 scAb (scFv, scAb (scFv-HuCk-His)) scFv: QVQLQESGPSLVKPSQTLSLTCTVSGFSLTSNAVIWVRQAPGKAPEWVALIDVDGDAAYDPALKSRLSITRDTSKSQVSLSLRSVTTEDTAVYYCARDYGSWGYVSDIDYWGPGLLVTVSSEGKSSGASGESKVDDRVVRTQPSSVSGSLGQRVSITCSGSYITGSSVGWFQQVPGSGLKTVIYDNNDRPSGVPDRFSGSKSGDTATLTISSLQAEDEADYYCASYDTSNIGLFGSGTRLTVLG",
    "LoD / ng/mL": 3.33
  },
  {
    "binder": "CA4 scAb (scFv, scAb (scFv-HuCk-His)) scFv: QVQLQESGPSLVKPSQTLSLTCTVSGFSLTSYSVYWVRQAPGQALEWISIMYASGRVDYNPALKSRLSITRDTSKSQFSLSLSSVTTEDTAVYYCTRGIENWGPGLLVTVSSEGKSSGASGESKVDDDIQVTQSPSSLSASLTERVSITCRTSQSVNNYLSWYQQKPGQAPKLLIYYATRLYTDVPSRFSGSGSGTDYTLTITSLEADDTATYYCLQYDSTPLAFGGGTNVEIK",
    "LoD / ng/mL": 0.37
  }
]

Attribution: patent US20250147051A1
